Target: mouse GnRH receptor (Mus musculus, UniProt Q01776)
Construct: expressed in transfected cells; host or cells: 293 cells
Sequence (Q01776 whole entry): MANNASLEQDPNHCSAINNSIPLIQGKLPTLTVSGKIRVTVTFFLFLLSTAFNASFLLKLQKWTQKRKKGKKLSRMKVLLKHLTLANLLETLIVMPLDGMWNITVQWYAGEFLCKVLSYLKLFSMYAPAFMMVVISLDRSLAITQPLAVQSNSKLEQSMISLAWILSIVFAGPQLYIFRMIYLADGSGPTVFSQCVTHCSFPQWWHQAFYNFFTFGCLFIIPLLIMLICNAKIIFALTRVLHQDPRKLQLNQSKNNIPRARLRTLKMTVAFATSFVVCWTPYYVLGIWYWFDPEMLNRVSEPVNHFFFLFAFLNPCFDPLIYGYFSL
Assay: Radioligand binding, 125I-GnRH-A, 293 cells expressing mouse GnRH receptors
Conditions: 10 uM; read-out: % Inhib. @ 10 uM mGnRH
Description: All compounds were diluted in 1% DMSO (final assay concentration) in binding assay buffer. […] Reactions were terminated by rapid filtration onto 96-well Packard GF/C filters soaked in 0.1% polyethyleneimine. Filters were washed three times with PBS buffer, dried and counted on a Packard Topcount by liquid scintillation counting. […] The reaction mixture was vortexed and incubated for 1 min at room temperature. […] Fractions were assessed for biological activity by radioligand binding.
Would you mind telling me the reported inhibition at 10 µM of each entry?
One number for each entry, in %.

The cases that follow already have their inhibition at 10 µM on record.
# Molecule, Readout unit, Readout number
records = [
    ("Cc1ccc(N2CCN(C(=O)c3ccc(Cc4cc5c(cc4C)C(C)(C)CCC5(C)C)o3)CC2)c(C)c1 [drawing 1455]", "%", 52),
    ("Cc1cc2c(cc1Cc1ccc(C(=O)NC(C)CO)o1)C(C)(C)CCC2(C)C (centres unmarked) [drawing 1241]", "%", 82),
    ("Cc1cc2c(cc1Cc1ccc(C(=O)N(Cc3ccccc3)C(C)C)o1)C(C)(C)CCC2(C)C [drawing 1541]", "%", 84),
    ("Cc1cc2c(cc1Cc1ccc(C(=O)N(CCCN3CCN(C)CC3)Cc3ccc(Cl)c(Cl)c3)o1)C(C)(C)CCC2(C)C", "%", 104),
    ("Cc1cc2c(cc1Cc1ccc(C(=O)N3CCc4c([nH]c5ccccc45)C3)o1)C(C)(C)CCC2(C)C", "%", 44),
]

Dear colleague, could you send me inhibition at 10 µM for each of the items below? Thanks.
1. Cc1cc2c(cc1Cc1ccc(C(=O)NC3C4CC5CC6CC(C5)C643)o1)C(C)(C)CCC2(C)C (centres unmarked)
2. CCC(CC)NC(=O)c1ccc(Cc2cc3c(cc2C)C(C)(C)CCC3(C)C)o1 [drawing 1546]
3. Cc1cc2c(cc1Cc1ccc(C(=O)N[C@@H](C)C(O)c3ccccc3)o1)C(C)(C)CCC2(C)C (some centres unmarked)

## Output
37
76
63

----------
Biological target: mouse GnRH receptor (Mus musculus, UniProt Q01776)
Construct: expressed in transfected cells; host or cells: 293 cells
Test: Radioligand binding, 125I-GnRH-A, 293 cells expressing mouse GnRH receptors
Settings: 1 h, substrate remaining; 10 uM compound; closer to zero = closer to 100% inhibition; read-out: S%R 10 uM mGnRHR
Measured metric: remaining activity at 10 µM (%)
Give bare numbers, in %.

The cases that follow already have their remaining activity at 10 µM on record.
# Compound, remaining activity at 10 µM (%)
rows = [
    ("Cc1cc2c(cc1Cc1ccc(C(=O)NCC(C)(C)CN(C)C)o1)C(C)(C)CCC2(C)C", 3),
    ("Cc1cc2c(cc1Cc1ccc(C(=O)NCCCCNc3nccc(NCC4CCCO4)n3)o1)C(C)(C)CCC2(C)C (stereo not shown)", 3),
    ("Cc1cc2c(cc1Cc1ccc(C(=O)N3CCN(c4cccc(C)c4C)CC3)o1)C(C)(C)CCC2(C)C", 43),
]

Let us move to another entry and its remaining activity at 10 µM.
## Input If you can, please state the reported remaining activity at 10 µM value of `Cc1cc2c(cc1Cc1ccc(C(=O)NCCc3c[nH]c4ccccc34)o1)C(C)(C)CCC2(C)C` .
## Output 6
